Exercise: state measured viability at 24 h, 5000 µg/mL for each of the compounds provided.
# Measurement Description: MTT cytotoxicity assay of cells cultured on the hydrogels
# Assay type: cell-based
# Measurement Parameters: human, hydrogel 5 mg/ml peptide, 24 hours culture, read-out: cell viability
Where a SMILES comes first, the peptide text is derived from it. The star is where a group is joined. Fmoc = O=C(OCC1c2ccccc2-c2ccccc21)*

Problem: For the compound shown here, CC[C@H](C)[C@H](NC(=O)[C@H](CC(=O)O)NC(=O)[C@H](CC(C)C)NC(=O)[C@H](CC(C)C)NC(=O)[C@H](CCCCN)NC(=O)OCC1c2ccccc2-c2ccccc21)C(=O)O [FA2, KLLDI] (Fmoc-KLLDI-OH; N-terminus and C-terminus assumed) , give the reported viability at 24 h, 5000 µg/mL.
Result: > 80%

Problem: For the compound shown here, CC[C@H](C)[C@H](NC(=O)[C@H](CCC(=O)O)NC(=O)[C@H](CCSC)NC(=O)[C@H](CC(C)C)NC(=O)[C@H](CCCCN)NC(=O)OCC1c2ccccc2-c2ccccc21)C(=O)O [FA1, KLMEI] (Fmoc-KLMEI-OH; N-terminus and C-terminus assumed) , give the reported viability at 24 h, 5000 µg/mL.
Result: > 80%

Problem: For the compound shown here, CC(C)C[C@H](NC(=O)[C@@H](NC(=O)[C@@H](NC(=O)[C@H](C)NC(=O)OCC1c2ccccc2-c2ccccc21)C(C)C)C(C)C)C(=O)N[C@@H](CO)C(=O)O [FA3, AVVLS] (Fmoc-AVVLS-OH; N-terminus and C-terminus assumed) , give the reported viability at 24 h, 5000 µg/mL.
Result: > 80%

Numbers sourced from patent US12318503B2.
